Recorded values, source patent US20230190870A1.

- experimental-target: T1, GST-TMEM97 (108-176), recombinant from wheat germ (Abnova) (UniProt Q5BJF2 108-176)
- T1 construct: not shown: GST tag
- T1 sequence (Q5BJF2 108-176 limits assumed, form in doubt): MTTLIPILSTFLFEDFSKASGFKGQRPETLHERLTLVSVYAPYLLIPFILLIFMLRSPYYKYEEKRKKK
- measurement-description: SPR, GST-TMEM97 (108-176) immobilized on CM5 chip, Hst1 as analyte; GST-tagged wheat-germ TMEM97 (108-176); SPR
Square brackets hold non-standard residues; d marks the D form. Ends that are not written are not given here. pS = N[C@@H](COP(=O)(O)O)C(=O)O
measure: Kd (µM)
Reply numerically in µM, unit not repeated.

I'd like to know its Kd. The binder in question is D[pS]HEKRHHGYRRKFHEKHHSHREFPFYGDYGSNYLYDN (Synthetic linear peptide made by Fmoc solid-phase synthesis; also called Hst1(1-38); H1) [Histatin 1 (Hst1)]
1.6
